Test system: ATP;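 further: ATP exposure 15 min at 22 °C before imaging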
assay.name: switch fluorescence ratio, 500 uM ATP over buffer (Cy3 cluster intensity, sum of 5 cycles each) (fold (ratio)); higher = stronger signal-on switching upon ATP binding; sequences stand for … in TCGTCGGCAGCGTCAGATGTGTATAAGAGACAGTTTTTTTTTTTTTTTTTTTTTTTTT…TC
study.conditions: aptamer strand: ATP DNA aptamer (quencher-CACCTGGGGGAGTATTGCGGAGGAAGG + anchor), 100 nM annealed; ATP concentration: 500 uM
Exercise: for every item that follows, state its recorded switch fluorescence ratio.
API note: the answer field is a bare number with no unit suffix.

Please report the recorded switch fluorescence ratio for CGGCTATTAC .
3.64

What measured switch fluorescence ratio goes with TAACGGAAAA ?
1

Bench note: what switch fluorescence ratio did CGATTTCAGA show?
1.01

Would you mind telling me what switch fluorescence ratio value was observed for CGTAGGGGGG ?
0.986

May I ask what switch fluorescence ratio has been recorded for CTTAGGGGT ?
1.03

switch fluorescence ratio lookup needed for TTACACGAGA , thanks.
1.05

What switch fluorescence ratio value was documented for this sequence, CTTTACACAG ?
1

Entry under review: GAGGTTAGAG . Reported switch fluorescence ratio?
0.98

Need switch fluorescence ratio of TTTCAGAGAA , thanks.
1.04

Which switch fluorescence ratio is listed for GGTTTGGGCG ?
1.03

Entry CCTTGAACGG : reported switch fluorescence ratio = ?
0.961

Return reported switch fluorescence ratio; argument: CAGGCTACCT
1.2

Reported switch fluorescence ratio for CCTGAAATAT : what is it?
2.53

// lookup switch fluorescence ratio for TGAATAGGGC
0.988

Fill in the blank: the reported switch fluorescence ratio of GCGATTGGAT is ____.
1.03

Need switch fluorescence ratio, item TCGGGACGTT
1.02

Name the recorded switch fluorescence ratio for GTGGAAATAG .
1.01

Recorded switch fluorescence ratio for CGGTAGTTTT , please?
0.99

Report switch fluorescence ratio for CGTCGTAGTG please.
0.989

What switch fluorescence ratio value was documented for this sequence, GTAGGGGCGG ?
1.01

switch fluorescence ratio lookup needed for GTGTCCCTC , thanks.
1.01
